- TARGET OF ASSAY: CD137 on Jurkat reporter cells (Promega kit CS196005) (UniProt Q07011 24-255, limits assumed)
- Sequence (Q07011 24-255 limits assumed): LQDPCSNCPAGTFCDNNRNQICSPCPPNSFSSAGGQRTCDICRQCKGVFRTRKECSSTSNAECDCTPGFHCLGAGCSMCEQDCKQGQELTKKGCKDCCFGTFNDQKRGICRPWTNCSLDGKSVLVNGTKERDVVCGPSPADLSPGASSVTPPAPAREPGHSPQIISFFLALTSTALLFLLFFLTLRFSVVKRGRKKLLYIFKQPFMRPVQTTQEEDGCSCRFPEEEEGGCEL
- METHOD NOTES: cell-based or functional assay
Starred links: 1 amine or outer side, 2 acyl side, 3 side chain; linkers in the order of their positions; H or OH if unused. Positions of bridges follow the written chain, without caps; N, C: chain ends. Non-standard residues stand in square brackets, D forms with d. Chains are numbered I, II in the order given. No end group written: not given here. *: point of attachment. TATA = O=C(CC[*:1])N1CN(C(=O)CC[*:2])CN(C(=O)CC[*:3])C1; γGlu = O=C(O)[C@H](CCC(=O)[*:2])N[*:1]; 1Nal = N[C@@H](Cc1cccc2ccccc12)C(=O)O; Palmitoyl = CCCCCCCCCCCCCCCC(=O)*; Hyp = O=C(O)[C@@H]1C[C@@H](O)CN1; hArg = N=C(N)NCCCC[C@H](N)C(=O)O; tBuAla = CC(C)(C)C[C@H](N)C(=O)O; dK(PYA) = not defined here; NMeA = CN[C@@H](C)C(=O)O; Nle = CCCC[C@H](N)C(=O)O; Pent4ynoyl = C#CCCC(=O)*; dNMeA = CN[C@H](C)C(=O)O
PROPERTY NAME: Emax (fold induction over background), HT1376 (fold over background)
Please respond with the number in fold over background and leave the unit unwritten.

BCY12760 (linker I:1-I:5-I:15, II:1-II:8-II:15 via TATA; not fully specified (some residues, bridges); also: chain 1 N-terminus and chain 2 dLys(PYA)4 joined by N-(acid-PEG3)-N-bis(PEG3-azide) linker) peptide 1: CP[1Nal]DCM[hArg]DWSTP[Hyp]WC peptide 2: Ac-C[tBuAla]PE[dK](Pent4ynoyl)PYCFAD[NMeA]Y[Nle]C ... 76
BCY10919 (not fully specified; BCY11014: Ac-(SEQ ID NO: 6)-Dap(PYA); TATA; linker at C-term Dap(PYA); BCY11015: [PYA]-(SEQ ID NO: 1); TATA; linker at N-term PYA) peptide 1: CPXDCMXDWSTPXWC peptide 2: CXPEAPYCFADPYXCX ... 62
BCY12589 (linker I:1-I:5-I:15, II:1-II:8-II:15 via TATA; not fully specified; also: chain 2 present twice on linker, Nectin-4:CD137 1:2, linker at B5 via N-(acid-PEG3)-N-bis(PEG3-azide), other end not in the chain) peptide 1: {Palmitoyl-γGlu-γGlu}-CP[1Nal]KCM[hArg]DWSTP[Hyp]WC peptide 2: Ac-C[tBuAla]PE[dK](Pent4ynoyl)PYCFADPY[Nle]CA ... 79
BCY12761 (linker I:1-I:5-I:15, II:1-II:8-II:15 via TATA; not fully specified (some residues, bridges); also: chain 1 N-terminus and chain 2 dLys(PYA)4 joined by N-(acid-PEG3)-N-bis(PEG3-azide) linker) peptide 1: CP[1Nal]DCM[hArg]DWSTP[Hyp]WC peptide 2: Ac-C[tBuAla]PE[dK](Pent4ynoyl)PYCFAD[dNMeA]Y[Nle]C ... 76

Now for a further binder.
*Q* Endpoint output: Emax (fold induction over background), HT1376 of BCY13583 (linker I:1-I:5-I:15 via TATA; linker II:1-II:8-II:15, III:1-III:8-III:15 via TATA (inferred); reading uncertain; also: Alexa Fluor 488 label, site not given here, linker at chain B 5 at chain C 5 to a chain's N-terminus via N-(acid-PEG3)-N-bis(PEG3-azide)) peptide 1: CP[1Nal][dD]CM[hArg]DWSTP[Hyp]WC peptide 2: Ac-C[tBuAla]PE[dK(PYA)]PYCFADPY[Nle]CA peptide 3: Ac-C[tBuAla]PE[dK(PYA)]PYCFADPY[Nle]CK . Value?
*A* 63
